The reported numbers originate from patent US9926282B2.

- subjectOfTest: ROCK2 (Homo sapiens (Human), UniProt O75116)
- Sequence (O75116 whole entry, species assumed): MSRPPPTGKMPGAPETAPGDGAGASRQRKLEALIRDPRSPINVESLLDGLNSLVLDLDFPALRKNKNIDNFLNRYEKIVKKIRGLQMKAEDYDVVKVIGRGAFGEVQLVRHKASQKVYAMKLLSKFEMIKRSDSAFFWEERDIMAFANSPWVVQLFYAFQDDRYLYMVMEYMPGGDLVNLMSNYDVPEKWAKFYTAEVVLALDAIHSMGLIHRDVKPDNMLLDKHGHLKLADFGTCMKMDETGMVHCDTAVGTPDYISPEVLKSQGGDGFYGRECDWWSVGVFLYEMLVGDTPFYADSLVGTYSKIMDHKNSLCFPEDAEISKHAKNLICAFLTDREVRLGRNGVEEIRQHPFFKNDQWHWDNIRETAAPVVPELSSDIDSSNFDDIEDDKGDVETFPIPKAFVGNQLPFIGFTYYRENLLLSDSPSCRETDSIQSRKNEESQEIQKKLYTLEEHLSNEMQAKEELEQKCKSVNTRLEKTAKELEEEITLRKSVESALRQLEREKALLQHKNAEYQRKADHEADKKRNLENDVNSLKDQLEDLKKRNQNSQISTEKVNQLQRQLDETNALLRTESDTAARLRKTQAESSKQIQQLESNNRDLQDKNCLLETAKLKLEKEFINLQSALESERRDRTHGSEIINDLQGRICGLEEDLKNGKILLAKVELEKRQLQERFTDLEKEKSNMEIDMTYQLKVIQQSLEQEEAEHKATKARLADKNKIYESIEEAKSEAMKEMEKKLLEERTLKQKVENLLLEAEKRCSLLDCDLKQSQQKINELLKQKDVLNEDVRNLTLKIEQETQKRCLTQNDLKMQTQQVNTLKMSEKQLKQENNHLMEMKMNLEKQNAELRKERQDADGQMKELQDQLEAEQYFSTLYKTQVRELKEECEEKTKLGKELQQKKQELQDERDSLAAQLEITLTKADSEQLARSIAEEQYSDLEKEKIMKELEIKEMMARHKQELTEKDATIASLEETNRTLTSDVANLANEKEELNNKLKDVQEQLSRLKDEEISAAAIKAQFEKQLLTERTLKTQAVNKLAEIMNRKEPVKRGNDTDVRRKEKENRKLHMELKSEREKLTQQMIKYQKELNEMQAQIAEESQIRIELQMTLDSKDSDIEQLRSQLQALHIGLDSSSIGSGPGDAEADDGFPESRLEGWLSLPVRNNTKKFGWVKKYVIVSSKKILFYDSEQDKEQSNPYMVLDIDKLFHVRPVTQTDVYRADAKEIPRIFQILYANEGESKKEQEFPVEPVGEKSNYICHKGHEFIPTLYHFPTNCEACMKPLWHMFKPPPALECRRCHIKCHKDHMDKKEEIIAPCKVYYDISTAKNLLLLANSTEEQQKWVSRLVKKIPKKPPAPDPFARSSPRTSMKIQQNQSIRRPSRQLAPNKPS
- assayExplanation: ROCK assay (LABCHIP peptide phosphorylation), ROCK2
- Assay type: biochemical
- measurementConditions: 5 μM ATP, 1.5 μM peptide substrate
# IC50 per entry

These solved cases illustrate the format of a correct answer.
- compoundStructureString: "Cc1cc(NC(=O)c2cnc3ccccn23)ccc1-c1n[nH]c(=O)c2ccccc12"
  obsValue: "0.0001 to 0.1 µM"
- compoundStructureString: "Cc1cc(CC(=O)N2CCc3ccccc32)ccc1-c1c[nH]c(=O)c2ccccc12"
  obsValue: "0.0001 to 0.1 µM"
- compoundStructureString: "Cn1nc(C(=O)Nc2ccc(-c3n[nH]c(=O)c4ccccc34)cc2)cc1-c1ccccc1"
  obsValue: "0.0001 to 0.1 µM"
- compoundStructureString: "O=C(Nc1ccc(-c2n[nH]c(=O)c3ccccc23)cc1)c1cnn2cccnc12"
  obsValue: "0.101 to 1 µM"

// query # query: IC50 | item CN(C)c1ccc(C(=O)Nc2ccc(-c3n[nH]c(=O)c4ccccc34)cc2)cc1 | system: ROCK2 (Homo sapiens (Human), UniProt O75116)
// result 0.0001 to 0.1 µM

// query # query: IC50 | item CN1CC[C@@H](Oc2ccc3c(c2)N(C(=O)Cc2ccc(-c4n[nH]c(=O)c5ccccc45)cc2)CC3)C1 | system: ROCK2 (Homo sapiens (Human), UniProt O75116)
// result 0.0001 to 0.1 µM

---

- subjectOfTest: ROCK1 (Homo sapiens (Human), UniProt Q13464)
- Sequence (Q13464 whole entry, species assumed): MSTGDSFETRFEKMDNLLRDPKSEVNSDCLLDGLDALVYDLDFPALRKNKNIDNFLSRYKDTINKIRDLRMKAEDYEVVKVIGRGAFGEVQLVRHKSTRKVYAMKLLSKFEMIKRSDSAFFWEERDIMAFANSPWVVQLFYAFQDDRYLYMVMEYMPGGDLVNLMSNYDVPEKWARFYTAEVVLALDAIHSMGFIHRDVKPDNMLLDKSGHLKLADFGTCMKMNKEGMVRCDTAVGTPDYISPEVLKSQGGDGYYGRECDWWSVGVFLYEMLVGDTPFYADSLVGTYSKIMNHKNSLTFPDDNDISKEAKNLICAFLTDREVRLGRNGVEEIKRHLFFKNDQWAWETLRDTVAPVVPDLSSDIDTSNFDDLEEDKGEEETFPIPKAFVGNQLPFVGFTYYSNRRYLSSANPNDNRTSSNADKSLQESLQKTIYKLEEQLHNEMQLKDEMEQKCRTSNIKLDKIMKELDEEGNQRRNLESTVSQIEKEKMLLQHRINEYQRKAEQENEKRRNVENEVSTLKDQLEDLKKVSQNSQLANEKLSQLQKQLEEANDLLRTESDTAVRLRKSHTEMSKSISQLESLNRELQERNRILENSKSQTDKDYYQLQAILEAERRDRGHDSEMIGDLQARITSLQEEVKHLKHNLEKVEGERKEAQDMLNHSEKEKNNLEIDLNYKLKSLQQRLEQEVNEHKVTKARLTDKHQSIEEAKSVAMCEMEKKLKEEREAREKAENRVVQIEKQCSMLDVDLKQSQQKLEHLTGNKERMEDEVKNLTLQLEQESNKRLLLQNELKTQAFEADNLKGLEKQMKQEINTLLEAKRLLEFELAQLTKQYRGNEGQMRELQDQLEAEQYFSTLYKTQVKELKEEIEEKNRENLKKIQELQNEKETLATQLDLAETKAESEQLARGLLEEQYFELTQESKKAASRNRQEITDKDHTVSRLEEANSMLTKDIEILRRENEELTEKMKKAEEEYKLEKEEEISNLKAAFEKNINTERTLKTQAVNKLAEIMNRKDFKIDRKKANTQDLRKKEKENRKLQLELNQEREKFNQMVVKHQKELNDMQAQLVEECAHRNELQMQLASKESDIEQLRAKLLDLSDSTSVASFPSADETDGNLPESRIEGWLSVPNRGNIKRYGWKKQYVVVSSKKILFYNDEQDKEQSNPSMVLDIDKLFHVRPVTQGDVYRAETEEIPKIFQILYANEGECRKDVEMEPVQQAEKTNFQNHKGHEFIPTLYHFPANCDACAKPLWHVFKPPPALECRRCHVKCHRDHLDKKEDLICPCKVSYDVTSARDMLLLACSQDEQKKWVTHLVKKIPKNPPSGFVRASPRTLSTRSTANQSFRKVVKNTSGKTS
- assayExplanation: ROCK assay (LABCHIP peptide phosphorylation), ROCK1
- Type: biochemical
- measurementConditions: 5 μM ATP, 1.5 μM peptide substrate; read-out: ROCK1 IC50
pIC50: −log10 of the molar value.
measuredProperty: pIC50

These solved cases illustrate the format of a correct answer.
- compound: "CC(C)Oc1ccc2c(c1)CCN2C(=O)Cc1ccc(-c2n[nH]c(=O)c3ccccc23)cc1 [Example 273]"
  obsValue: "6.00 to 7.00"
- compound: "O=C(Nc1ccc(-c2n[nH]c(=O)c3ccccc23)cc1)c1nn(CC2CNC2)c2ccccc12 [Example 338]"
  obsValue: "7.00 to 10.00"
- compound: "CCOc1cc(NC(=O)c2nn(CC(C)(C)O)c3ccccc23)ccc1-c1n[nH]c(=O)c2ccccc12 [Example 346]"
  obsValue: "4.30 to 6.00"

Could you now consider this next compound?
// query Recorded pIC50 for CC(C)(O)Cn1nc(C(=O)Nc2ccc(-c3n[nH]c(=O)c4ccccc34)cc2)c2ccc(F)cc21 [Example 158] , please?
// result 7.00 to 10.00

---

# pIC50 per entry
- subjectOfTest: ROCK1 (Homo sapiens (Human))
- assayExplanation: ROCK assay (LABCHIP peptide phosphorylation), ROCK1
- Type: biochemical
- measurementConditions: 5 μM ATP, 1.5 μM peptide substrate; read-out: ROCK1 IC50
pIC50: −log10 of the molar value.

- molecule: "Cc1cc(C(=O)Nc2ccc(-c3n[nH]c(=O)c4ccccc34)cc2)nn1C(C)(C)C"
  subjectOfTest: "ROCK1 (Homo sapiens (Human))"
  pIC50: "7.00 to 10.00"
- molecule: "O=C(Cc1ccc(-c2c[nH]c(=O)c3ccccc23)cc1)N1Cc2ccccc2C1"
  subjectOfTest: "ROCK1 (Homo sapiens (Human))"
  pIC50: "6.00 to 7.00"

// query # query: pIC50 | item O=C(Nc1ccc(-c2n[nH]c(=O)c3ccccc23)cc1)C1CC(=O)N(c2cccc(Cl)c2F)C1 (centres unmarked) | system: ROCK1 (Homo sapiens (Human))
// result 4.30 to 6.00

---

# IC50 per entry
- subjectOfTest: ROCK1 (Homo sapiens (Human), UniProt Q13464)
- assayExplanation: ROCK assay (LABCHIP peptide phosphorylation), ROCK1
- Assay type: biochemical
- measurementConditions: 5 μM ATP, 1.5 μM peptide substrate; read-out: ROCK1 IC50

- compound: "O=C(Nc1ccc(-c2n[nH]c(=O)c3ccccc23)cc1)c1cnn(CC(O)(C(F)(F)F)C(F)(F)F)c1 [Example 380]"
  obsValue: "101 to 1000 nM"
- compound: "O=C(Cc1ccc(-c2n[nH]c(=O)c3ccccc23)cc1)Nc1ccc2ncsc2c1 [Example 21]"
  obsValue: "101 to 1000 nM"
- compound: "CN1CC(=O)c2c(C(=O)Nc3ccc(-c4n[nH]c(=O)c5ccccc45)cc3)coc2C1 [Example 111]"
  obsValue: "101 to 1000 nM"
- compound: "O=C(Nc1ccc(-c2n[nH]c(=O)c3ccccc23)c(CO)c1)c1nn(CC2CCOC2)c2cc(F)ccc12 (centres unmarked) [Example 368]"
  obsValue: "1000 to 50000 nM"
- compound: "O=C(Cc1ccc(-c2n[nH]c(=O)c3ccccc23)cc1)N1CCN(Cc2ccccc2)CC1 [Example 12]"
  obsValue: "1000 to 50000 nM"
- compound: "COc1ccccc1-n1cc(C(=O)Nc2ccc(-c3n[nH]c(=O)c4ccccc34)cc2)cn1 [Example 197]"
  obsValue: "0.1 to 100 nM"
- compound: "O=C(Nc1ccc(-c2n[nH]c(=O)c3ccccc23)cc1)c1nn(CC2CCOC2)c2ccc(F)cc12 (centres unmarked) [Example 173]"
  obsValue: "0.1 to 100 nM"

Could you now consider this next compound?
// query Recorded IC50 for CCOc1cc(NC(=O)c2nn(CC3CCOC3)c3ccccc23)ccc1-c1n[nH]c(=O)c2ccccc12 (centres unmarked) [Example 347] , please?
// result 1000 to 50000 nM

---

- subjectOfTest: UniProt Q13464
- assayExplanation: ROCK assay (LABCHIP peptide phosphorylation), ROCK1
- Format: biochemical
- measurementConditions: 5 μM ATP, 1.5 μM peptide substrate; read-out: ROCK1 IC50
pIC50: −log10 of the molar value.
# pIC50 per entry

- molecule: "Cc1cc(NC(=O)c2nn(CC3CCN(CCCCO)CC3)c3ccccc23)ccc1-c1n[nH]c(=O)c2ccccc12"
  pIC50: "7.00 to 10.00"
- molecule: "COc1ccc2c(=O)[nH]cc(-c3ccc(NC(=O)N4CCc5ccccc54)cc3)c2c1"
  pIC50: "7.00 to 10.00"

// query Recorded pIC50 for CC(C(=O)N1CCc2ccccc21)c1ccc(-c2n[nH]c(=O)c3ccccc23)cc1 (stereo not shown) , please?
// result 4.30 to 6.00

// query Recorded pIC50 for O=C(Nc1ccc(-c2n[nH]c(=O)c3ccccc23)cc1)c1nn(CC(O)COCc2ccccc2)c2ccccc12 (stereo not shown) , please?
// result 7.00 to 10.00

// query Recorded pIC50 for O=C(Nc1ccc(-c2n[nH]c(=O)c3ccccc23)cc1)c1ccnn1-c1ccccc1 , please?
// result 6.00 to 7.00

// query Recorded pIC50 for O=C(Nc1ccc(-c2n[nH]c(=O)c3ccccc23)cc1)c1ccc(N2CCCCC2)cc1 , please?
// result 7.00 to 10.00

// query Recorded pIC50 for CCOc1ccc2c(c1)N(C(=O)Cc1ccc(-c3n[nH]c(=O)c4ccccc34)cc1)CC2 , please?
// result 7.00 to 10.00

// query Recorded pIC50 for O=C(Cc1ccc(-c2n[nH]c(=O)c3ccccc23)cc1)N1CCC(Cc2ccccc2)CC1 , please?
// result 4.30 to 6.00

// query Recorded pIC50 for O=C(Nc1ccc(-c2n[nH]c(=O)c3ccccc23)cc1)c1c[nH]c2ccncc12 , please?
// result 6.00 to 7.00

// query Recorded pIC50 for O=C(Nc1ccc(-c2n[nH]c(=O)c3ccccc23)cc1)c1nn(CCCO)c2ccccc12 , please?
// result 7.00 to 10.00

// query Recorded pIC50 for CC(C)(C)c1cc(NC(=O)Cc2ccc(-c3n[nH]c(=O)c4ccccc34)cc2)no1 , please?
// result 6.00 to 7.00

---

- subjectOfTest: UniProt:Q13464
- assayExplanation: ROCK assay (LABCHIP peptide phosphorylation), ROCK1
- Assay type: biochemical
- measurementConditions: 5 μM ATP, 1.5 μM peptide substrate; read-out: ROCK1 IC50
measuredProperty: IC50

// query Recorded IC50 for CN(C)C(=O)c1ccc2c(c1)N(C(=O)Cc1ccc(-c3n[nH]c(=O)c4ccccc34)cc1)CC2 [Example 291] , please?
// result 101 to 1000 nM

// query Recorded IC50 for O=C(Nc1ccc(-c2n[nH]c(=O)c3ccccc23)cc1)c1nc2ncccn2n1 [Example 112] , please?
// result 1000 to 50000 nM

// query Recorded IC50 for Cn1nc(C(=O)Nc2ccc(-c3n[nH]c(=O)c4ccccc34)cc2)cc1OC(F)F [Example 403] , please?
// result 0.1 to 100 nM

// query Recorded IC50 for CC(C)(O)CNC(=O)CCn1nc(C(=O)Nc2ccc(-c3n[nH]c(=O)c4ccccc34)cc2)c2ccccc21 [Example 336] , please?
// result 0.1 to 100 nM
